# Test system: SF-268
# METHOD_SUMMARY: Cytotoxicity against human SF268 cells after 48 hrs by SRB assay
# Assay type: functional
# RECORDED_CONDITIONS: SF-268, 48 h
MEASURED_PARAMETER: GI50 (µM)
Reply numerically in µM, unit not repeated.

SF-268 data for `C=C[C@]1(C)C[C@H](OC(=O)C(=C)[C@@H](O)CO)[C@H]2C(=C)C(=O)O[C@@H]2[C@H]1C(=C)CO` ; its GI50: 29.3

SF-268 data for C=C[C@]1(C)C[C@H](OC(=O)C(=C)[C@@H](O)CO)[C@@H](C(=C)C(=O)OC)[C@H](O)C1C(=C)CO (some centres undefined) ; its GI50: 37.6

SF-268 data for `C=C[C@]1(C)C[C@H](OC(=O)C(=C)[C@@H](O)CO)[C@H]2C(=C)C(=O)O[C@@H]2[C@H]1C(=C)C=O` ; its GI50: 7.7

###

# Test system: Escherichia coli
# METHOD_SUMMARY: Antimicrobial activity against Escherichia coli ATCC 35218 by microdilution method
# Format: functional, organism-based
Calls of active or inactive are those of the source. The calls are words filed in the database; no cut-off is given here.

{"MOLECULE": "C=C1C(=O)O[C@H]2[C@H]1[C@@H](OC(=O)C(=C)[C@@H](O)COC(C)=O)C[C@]1(C)[C@@H]2[C@@H](C=O)CC[C@H]1O", "Activity": "inactive"}
{"MOLECULE": "C=C1C(=O)O[C@H]2[C@H]1[C@@H](OC(=O)C(=C)[C@@H](O)CO)C[C@]1(C)[C@@H]2[C@@H](C=O)CC[C@H]1O [MALACITANOLIDE]", "Activity": "inactive"}
{"MOLECULE": "C=C1C(=O)O[C@@H]2/C=C(\\CO)CC/C=C(\\C)C[C@H](OC(=O)C(=C)[C@@H](O)COC(C)=O)[C@@H]12", "Activity": "inactive"}

###

Provide the recorded MIC for the entries that follow.
# Test system: Staphylococcus aureus
# METHOD_SUMMARY: Antimicrobial activity against Staphylococcus aureus ATCC 6538 by microdilution method
# Type: functional
Reply numerically in µg/mL, unit not repeated.

Notebook: `C=C[C@]1(C)C[C@H](OC(=O)C(=C)[C@@H](O)CO)[C@H]2C(=C)C(=O)O[C@@H]2[C@H]1C(=C)C=O` , MIC read as 5

Notebook: C=C1C(=O)O[C@H]2[C@H]1[C@@H](OC(=O)C(=C)[C@@H](O)CO)C[C@]1(C)[C@@H]2[C@@H](C=O)CC[C@H]1O [MALACITANOLIDE] , MIC read as 5

Notebook: `C=C1C(=O)O[C@H]2[C@H]1[C@@H](OC(=O)C(=C)[C@@H](O)CO)C[C@]1(C)[C@@H]2[C@H](C=O)CC[C@H]1O` , MIC read as 5

###

# Tested on: Escherichia coli
# METHOD_SUMMARY: Antimicrobial activity against Escherichia coli ATCC 35218 by microdilution method
# Format: functional, organism-based
The source made the active and inactive calls. The calls are words filed in the database; no cut-off is given here.
MEASURED_PARAMETER: Activity

Some entries whose results are on file:
{"COMPOUND": "C=C[C@]1(C)C[C@H](OC(=O)C(=C)[C@@H](O)CO)[C@H]2C(=C)C(=O)O[C@@H]2[C@H]1C(=C)C=O", "Activity": "inactive"}
{"COMPOUND": "C=C[C@]1(C)C[C@H](OC(=O)C(=C)[C@@H](O)CO)[C@H]2C(=C)C(=O)O[C@@H]2[C@H]1C(=C)CO", "Activity": "inactive"}
{"COMPOUND": "C=C[C@]1(C)C[C@H](OC(=O)C(=C)[C@@H](O)CO)[C@@H](C(=C)C(=O)OC)[C@H](O)C1C(=C)CO (some centres not stated)", "Activity": "inactive"}
{"COMPOUND": "C=C1C(=O)O[C@@H]2/C=C(\\CO)CC/C=C(\\C)C[C@H](OC(=O)C(=C)[C@H](O)CO)[C@@H]12", "Activity": "inactive"}
{"COMPOUND": "C=C1C(=O)O[C@@H]2/C=C(\\CO)CC/C=C(\\C)C[C@H](OC(=O)/C(=C/COC(C)=O)CO)[C@@H]12", "Activity": "inactive"}

Notebook: `C=C1C(=O)O[C@@H]2[C@H]1[C@@H](OC(=O)/C(=C/COC(C)=O)CO)C[C@]1(C)[C@@H]2[C@@H](C=O)CC[C@H]1O` , Activity read as inactive

Notebook: `C=C1C(=O)O[C@H]2[C@H]1[C@@H](OC(=O)C(=C)[C@@H](O)CO)C[C@]1(C)[C@@H]2[C@H](C=O)CC[C@H]1O` , Activity read as inactive

###

# Test system: MCF7
# METHOD_SUMMARY: Cytotoxicity against human MCF7 cells after 48 hrs by SRB assay
# Assay type: functional
# RECORDED_CONDITIONS: MCF7, 48 h
Provide the recorded GI50 for the entries that follow.
Reply numerically in µM, unit not repeated.

Notebook: `C=C1C(=O)O[C@H]2[C@H]1[C@@H](OC(=O)C(=C)[C@@H](O)CO)C[C@]1(C)[C@@H]2[C@H](C=O)CC[C@H]1O` , GI50 read as 31.7

Notebook: `C=C[C@]1(C)C[C@H](OC(=O)C(=C)[C@@H](O)CO)[C@H]2C(=C)C(=O)O[C@@H]2[C@H]1C(=C)C=O` , GI50 read as 10

Notebook: C=C1C(=O)O[C@@H]2/C=C(\CO)CC/C=C(\C)C[C@H](OC(=O)C(=C)[C@H](O)CO)[C@@H]12 [CNICIN] , GI50 read as 37.8

###

# Test system: Bacillus cereus
# METHOD_SUMMARY: Antimicrobial activity against Bacillus cereus isolates by microdilution method
# Format: functional
MEASURED_PARAMETER: MIC (µg/mL)
Reply numerically in µg/mL, unit not repeated.

Notebook: `C=C[C@]1(C)C[C@H](OC(=O)C(=C)[C@@H](O)CO)[C@H]2C(=C)C(=O)O[C@@H]2[C@H]1C(=C)CO` , MIC read as 1.25

Notebook: CN[C@@H]1[C@H](O[C@H]2[C@H](O[C@H]3[C@H](O)[C@@H](O)[C@H](N=C(N)N)[C@@H](O)[C@@H]3N=C(N)N)O[C@@H](C)[C@]2(O)C=O)O[C@@H](CO)[C@H](O)[C@H]1O [STREPTOMYCIN] , MIC read as 0.1

Notebook: C=C1C(=O)O[C@@H]2/C=C(\CO)CC/C=C(\C)C[C@H](OC(=O)C(=C)[C@H](O)CO)[C@@H]12 [CNICIN] , MIC read as 1.25

Notebook: `C=C1C(=O)O[C@@H]2/C=C(\CO)CC/C=C(\C)C[C@H](OC(=O)C(=C)[C@@H](O)COC(C)=O)[C@@H]12` , MIC read as 1.25

Notebook: `C=C[C@]1(C)C[C@H](OC(=O)C(=C)[C@@H](O)CO)[C@H]2C(=C)C(=O)O[C@@H]2[C@H]1C(=C)C=O` , MIC read as 1.25

Notebook: `C=C1C(=O)O[C@@H]2/C=C(\CO)CC/C=C(\C)C[C@H](OC(=O)/C(=C/COC(C)=O)CO)[C@@H]12` , MIC read as 1.25

Notebook: `C=C1C(=O)O[C@H]2[C@H]1[C@@H](OC(=O)C(=C)[C@@H](O)CO)C[C@]1(C)[C@@H]2[C@H](C=O)CC[C@H]1O` , MIC read as 5

###

# Tested on: Staphylococcus aureus
# METHOD_SUMMARY: Antimicrobial activity against Staphylococcus aureus ATCC 6538 by microdilution method
# Type: functional
Provide the recorded MIC for the entries that follow.
Reply numerically in µg/mL, unit not repeated.

Notebook: `C=C1C(=O)O[C@@H]2/C=C(\CO)CC/C=C(\C)C[C@H](OC(=O)C(=C)[C@@H](O)COC(C)=O)[C@@H]12` , MIC read as 5

Notebook: `C=C1C(=O)O[C@@H]2[C@H]1[C@@H](OC(=O)/C(=C/COC(C)=O)CO)C[C@]1(C)[C@@H]2[C@@H](C=O)CC[C@H]1O` , MIC read as 3.5

Notebook: `C=C1C(=O)O[C@H]2[C@H]1[C@@H](OC(=O)C(=C)[C@@H](O)COC(C)=O)C[C@]1(C)[C@@H]2[C@@H](C=O)CC[C@H]1O` , MIC read as 5
